- test: chemical genetic growth profiling, strain panel (AID 1159580);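 note: tested at 20 µM; growth read once vehicle control cultures reached saturation at 30 °C; 1 = growth at the plate median or of vehicle wells; lower values mean less growth of the strain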
- condition: S. cerevisiae deletion strains, growth OD, locus YER167W, strain BCK2, active compounds read low
About 2,000 (36%) of roughly 5,500 compounds were called active. Inconclusive results (about 18%) are left out. The list shows a part of the results.
Each record is given true (1) if its reported normalized growth is strictly below 1. Records at or above 1 are given false (0).

{"molecule": "C=C1c2c(Cl)ccc(O)c2C(O)=C2C(=O)[C@]3(O)C(O)=C(C(N)=O)C(=O)[C@@H](N(C)C)[C@@H]3[C@@H](O)[C@H]12", "category": "true (1)"}
{"molecule": "CC(C)CCCC(C)C1CCC2C3=CC[C@H]4C[C@@H](O)CC[C@]4(C)C3CC[C@@]21C (stereo partly drawn)", "category": "false (0)"}
{"molecule": "CC(C)CCCC(C)C1CCC2C3CC(=O)[C@H]4C[C@@H](O)CC[C@]4(C)C3CC[C@]12C (stereo partly drawn)", "category": "false (0)"}
{"molecule": "CN(C)CCCN1c2ccccc2CCc2ccc(Cl)cc21", "category": "true (1)"}
{"molecule": "NC(Cn1ccc(=O)c(O)c1)C(=O)O (stereo not drawn)", "category": "false (0)"}

Exercise: Determine whether this molecule shows normalized growth lower than 1 (ties excluded): COC(=O)c1c(C)c2c(c(C)c1OC)OC(=O)c1c(C)c(Cl)c(OC)c(Cl)c1O2
Solution: false (0)

Exercise: Determine whether this molecule shows normalized growth lower than 1 (ties excluded): COc1c(C)c2c(c(C)c1Cl)Oc1c(Cl)c(OC)c(Cl)c(C)c1C(=O)O2
Solution: false (0)

* * *

Listed compounds paired with reported normalized growth
- test: chemical genetic growth profiling, strain panel (AID 1159580);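 note: tested at 20 µM; growth read once vehicle control cultures reached saturation at 30 °C; 1 = growth at the plate median or of vehicle wells; lower values mean less growth of the strain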
- condition: S. cerevisiae deletion strains, growth OD, locus YMR205C, strain PFK2, active compounds read low
In all, about 5,500 compounds went through this assay and about 2,000 (36%) were called active. Not shown: some 18% with an inconclusive outcome. This is one part of the list.
Please respond with just the number, no unit label.

Worked cases, answers included:
{"compound": "CN1CCN(C(=O)OC2c3nccnc3C(=O)N2c2ccc(Cl)cn2)CC1 (centres undefined)", "normalized growth": 0.99}
{"compound": "CN(C)[C@@H]1C(=O)C(C(N)=O)=C(O)[C@@]2(O)C(=O)C3=C(O)c4c(O)ccc(Cl)c4[C@@](C)(O)[C@H]3C[C@@H]12", "normalized growth": 0.989}
{"compound": "CC(C)=CCCC(C)[C@@H]1CC[C@]2(C)C3=C(CC[C@@]12C)C1(C)CC[C@H](O)C(C)(C)C1CC3 (some centres undefined)", "normalized growth": 1.04}
{"compound": "CNNC", "normalized growth": 1.02}
{"compound": "O=P1(N(CCCl)CCCl)NCCCO1 (centres undefined)", "normalized growth": 1.03}

Read the next record carefully.
Exercise: Specify reported normalized growth for the compound shown: COC(=O)c1c(C)c2c(c(C)c1O)OC(=O)c1c(C)c(Cl)c(O)c(Cl)c1O2
Solution: 0.879

* * *

Listed compounds paired with reported normalized growth
- test: chemical genetic growth profiling, strain panel (AID 1159580);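 note: tested at 20 µM; growth read once vehicle control cultures reached saturation at 30 °C; 1 = growth at the plate median or of vehicle wells; lower values mean less growth of the strain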
- condition: S. cerevisiae deletion strains, growth OD, locus YLR262C, strain YPT6, active compounds read low
About 2,000 (36%) of roughly 5,500 compounds were called active. About 18% were inconclusive and are not listed. The list shows a part of the results.
Please respond with just the number, no unit label.

Worked cases, answers included:
{"compound": "CC(=O)Nc1ccc(S(=O)(=O)Nc2c(C)n(C)n(-c3ccccc3)c2=O)cc1", "experimental value": 1}
{"compound": "C/C1=C/CC(C)(C)/C=C/C/C(C)=C/CC1", "experimental value": 0.789}
{"compound": "NCCCCCCNS(=O)(=O)c1cccc2c(Cl)cccc12", "experimental value": 1.02}

Exercise: Specify reported normalized growth for the compound shown: CCOC(CN(c1ccc(F)cc1)S(=O)(=O)c1ccc(F)cc1F)OCC
Solution: 0.935

Exercise: Specify reported normalized growth for the compound shown: O=S(=O)(Oc1ccc(OCc2ccccc2)cc1)c1cc(Cl)cc(Cl)c1
Solution: 0.985

Exercise: Specify reported normalized growth for the compound shown: CN(C)C1C(=O)C(C(N)=O)=C(O)C2(O)C(=O)C3=C(O)c4c(O)ccc(Cl)c4C(C)(O)C3CC12 (stereo unspecified)
Solution: 0.985

Exercise: Specify reported normalized growth for the compound shown: C[n+]1ccccc1/C=N/O
Solution: 1

Exercise: Specify reported normalized growth for the compound shown: Fc1cc(F)cc(COc2cc(Cl)cc(Cl)c2)c1
Solution: 0.943

Exercise: Specify reported normalized growth for the compound shown: CCN(CC)CCOC(=O)C(c1ccccc1)C1CCCCC1 (stereo unspecified)
Solution: 1.12

Exercise: Specify reported normalized growth for the compound shown: COC(=O)c1ccc(S(=O)(=O)N2CCC(C(N)=O)CC2)n1C
Solution: 1.03

Exercise: Specify reported normalized growth for the compound shown: O=C(O)C1C2CCC1C(O)C2 (stereo unspecified)
Solution: 0.968
